Reference source: a collection of fitness landscapes (doi:10.1016/j.celrep.2020.107928)

For each of the variants below, state its one-hybrid fitness for binding NBS DNA.
B1: Caulobacter ParB omega fusion; a variant is named by its letters at X, in order, B8GW30 (parent)
chain: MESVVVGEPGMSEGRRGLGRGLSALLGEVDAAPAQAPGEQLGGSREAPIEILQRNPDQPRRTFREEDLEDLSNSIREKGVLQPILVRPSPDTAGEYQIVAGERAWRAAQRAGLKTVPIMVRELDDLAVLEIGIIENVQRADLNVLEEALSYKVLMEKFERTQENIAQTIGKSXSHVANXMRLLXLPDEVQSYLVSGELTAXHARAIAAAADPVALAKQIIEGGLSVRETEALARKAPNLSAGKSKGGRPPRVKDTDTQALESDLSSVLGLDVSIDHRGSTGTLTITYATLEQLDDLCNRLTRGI

# Variants of: B1
# protocol: one-hybrid fitness for binding NBS DNA (the Noc-binding site; scaled: cognate 1, non-cognate 0); higher = stronger binding
# measurement-context: with NBS DNA site
In all, about 81,000 sequences were measured (“one-hybrid fitness for binding NBS DNA”: median about -0.1, highest 2% from about 0.36 on). This is one part of a sample in which the highest values are shown more often than they occur.

So, RVSD ? Its one-hybrid fitness for binding NBS DNA was ≤ 0.2

So, KQID ? Its one-hybrid fitness for binding NBS DNA was ≤ 0.2

So, RRID ? Its one-hybrid fitness for binding NBS DNA was ≤ 0.2

So, RMKP ? Its one-hybrid fitness for binding NBS DNA was ≤ 0.2

So, QKLP ? Its one-hybrid fitness for binding NBS DNA was ≤ 0.2

So, SGID ? Its one-hybrid fitness for binding NBS DNA was ≤ 0.2

So, QRIT ? Its one-hybrid fitness for binding NBS DNA was 0.678

So, QPIT ? Its one-hybrid fitness for binding NBS DNA was ≤ 0.2

So, LYFR ? Its one-hybrid fitness for binding NBS DNA was ≤ 0.2

So, RCPR ? Its one-hybrid fitness for binding NBS DNA was ≤ 0.2

So, MARN ? Its one-hybrid fitness for binding NBS DNA was ≤ 0.2

So, RMDT ? Its one-hybrid fitness for binding NBS DNA was 0.226

So, QSIT ? Its one-hybrid fitness for binding NBS DNA was 0.353

So, NLSK ? Its one-hybrid fitness for binding NBS DNA was ≤ 0.2

So, QQTT ? Its one-hybrid fitness for binding NBS DNA was 0.464

So, QCHS ? Its one-hybrid fitness for binding NBS DNA was 0.502

So, QRPG ? Its one-hybrid fitness for binding NBS DNA was ≤ 0.2

So, QKSH ? Its one-hybrid fitness for binding NBS DNA was 0.241

So, RPKH ? Its one-hybrid fitness for binding NBS DNA was ≤ 0.2

So, RHND ? Its one-hybrid fitness for binding NBS DNA was ≤ 0.2

So, QKLR ? Its one-hybrid fitness for binding NBS DNA was 0.491

So, RVSN ? Its one-hybrid fitness for binding NBS DNA was ≤ 0.2

So, QSLH ? Its one-hybrid fitness for binding NBS DNA was ≤ 0.2

So, HSMS ? Its one-hybrid fitness for binding NBS DNA was ≤ 0.2

So, RHNT ? Its one-hybrid fitness for binding NBS DNA was 0.508

So, EPSE ? Its one-hybrid fitness for binding NBS DNA was ≤ 0.2

So, QAPR ? Its one-hybrid fitness for binding NBS DNA was 0.275

So, RRPP ? Its one-hybrid fitness for binding NBS DNA was ≤ 0.2

So, GGKA ? Its one-hybrid fitness for binding NBS DNA was ≤ 0.2

So, QAIR ? Its one-hybrid fitness for binding NBS DNA was 0.308

So, TLCF ? Its one-hybrid fitness for binding NBS DNA was ≤ 0.2

So, QAHR ? Its one-hybrid fitness for binding NBS DNA was 0.541

So, RMVS ? Its one-hybrid fitness for binding NBS DNA was 0.29

So, KAHR ? Its one-hybrid fitness for binding NBS DNA was ≤ 0.2

So, SFTN ? Its one-hybrid fitness for binding NBS DNA was ≤ 0.2

So, QHTQ ? Its one-hybrid fitness for binding NBS DNA was ≤ 0.2

So, QSHN ? Its one-hybrid fitness for binding NBS DNA was ≤ 0.2

So, MAYR ? Its one-hybrid fitness for binding NBS DNA was ≤ 0.2

So, KNIF ? Its one-hybrid fitness for binding NBS DNA was ≤ 0.2

So, LSVE ? Its one-hybrid fitness for binding NBS DNA was ≤ 0.2

So, QRPT ? Its one-hybrid fitness for binding NBS DNA was 0.576

So, CSVV ? Its one-hybrid fitness for binding NBS DNA was ≤ 0.2

So, RSDQ ? Its one-hybrid fitness for binding NBS DNA was ≤ 0.2

So, QQTC ? Its one-hybrid fitness for binding NBS DNA was ≤ 0.2

So, DMET ? Its one-hybrid fitness for binding NBS DNA was ≤ 0.2

So, RWRF ? Its one-hybrid fitness for binding NBS DNA was ≤ 0.2

So, QRIP ? Its one-hybrid fitness for binding NBS DNA was ≤ 0.2

So, QSHH ? Its one-hybrid fitness for binding NBS DNA was ≤ 0.2

So, ATGK ? Its one-hybrid fitness for binding NBS DNA was ≤ 0.2

So, QAYR ? Its one-hybrid fitness for binding NBS DNA was 0.464

So, KYLR ? Its one-hybrid fitness for binding NBS DNA was ≤ 0.2

So, HRDS ? Its one-hybrid fitness for binding NBS DNA was ≤ 0.2

So, WNAL ? Its one-hybrid fitness for binding NBS DNA was ≤ 0.2

So, SFAL ? Its one-hybrid fitness for binding NBS DNA was ≤ 0.2

So, VQPA ? Its one-hybrid fitness for binding NBS DNA was ≤ 0.2

So, QQTR ? Its one-hybrid fitness for binding NBS DNA was 0.648

So, MARR ? Its one-hybrid fitness for binding NBS DNA was 0.414

So, SAEQ ? Its one-hybrid fitness for binding NBS DNA was ≤ 0.2

So, FIER ? Its one-hybrid fitness for binding NBS DNA was ≤ 0.2

So, QQTN ? Its one-hybrid fitness for binding NBS DNA was ≤ 0.2

So, WAWT ? Its one-hybrid fitness for binding NBS DNA was ≤ 0.2

So, WGKE ? Its one-hybrid fitness for binding NBS DNA was ≤ 0.2

So, RVSC ? Its one-hybrid fitness for binding NBS DNA was ≤ 0.2

So, RVSH ? Its one-hybrid fitness for binding NBS DNA was ≤ 0.2

So, QMLR ? Its one-hybrid fitness for binding NBS DNA was 0.5

So, QKRD ? Its one-hybrid fitness for binding NBS DNA was 0.268

So, QQTP ? Its one-hybrid fitness for binding NBS DNA was ≤ 0.2

So, RVSP ? Its one-hybrid fitness for binding NBS DNA was ≤ 0.2

So, QCIT ? Its one-hybrid fitness for binding NBS DNA was 0.432

So, MCLS ? Its one-hybrid fitness for binding NBS DNA was ≤ 0.2

So, GQNS ? Its one-hybrid fitness for binding NBS DNA was ≤ 0.2

So, QHTT ? Its one-hybrid fitness for binding NBS DNA was 0.412

So, GTKR ? Its one-hybrid fitness for binding NBS DNA was 0.255

So, QALP ? Its one-hybrid fitness for binding NBS DNA was ≤ 0.2

So, QQIF ? Its one-hybrid fitness for binding NBS DNA was ≤ 0.2

So, QQTH ? Its one-hybrid fitness for binding NBS DNA was 0.264

So, RFNT ? Its one-hybrid fitness for binding NBS DNA was 0.279

So, RFYH ? Its one-hybrid fitness for binding NBS DNA was ≤ 0.2

So, QPHS ? Its one-hybrid fitness for binding NBS DNA was ≤ 0.2

So, PCWT ? Its one-hybrid fitness for binding NBS DNA was ≤ 0.2

So, NNMC ? Its one-hybrid fitness for binding NBS DNA was ≤ 0.2

So, QMLD ? Its one-hybrid fitness for binding NBS DNA was ≤ 0.2

So, QMLH ? Its one-hybrid fitness for binding NBS DNA was ≤ 0.2

So, RICA ? Its one-hybrid fitness for binding NBS DNA was ≤ 0.2

So, RRPR ? Its one-hybrid fitness for binding NBS DNA was 0.605

So, MRDI ? Its one-hybrid fitness for binding NBS DNA was ≤ 0.2

So, QQTS ? Its one-hybrid fitness for binding NBS DNA was 0.433

So, RHDT ? Its one-hybrid fitness for binding NBS DNA was 0.258

So, SITC ? Its one-hybrid fitness for binding NBS DNA was ≤ 0.2

So, RCIR ? Its one-hybrid fitness for binding NBS DNA was 0.294

So, RMKD ? Its one-hybrid fitness for binding NBS DNA was ≤ 0.2
